Please go through the items and note down their max response.
target: Nuclear receptor subfamily 1 group I member 2 (Rattus norvegicus) (UniProt Q9R1A7); experiment: qHTS assay for small molecule activators of the rat pregnane X receptor (rPXR) signaling pathway (AID 651751); conditions: rPXR reporter cells, luciferase (One-Glo), 24 h; further: 0% is about no effect
Sequence (Q9R1A7 whole entry, looked up): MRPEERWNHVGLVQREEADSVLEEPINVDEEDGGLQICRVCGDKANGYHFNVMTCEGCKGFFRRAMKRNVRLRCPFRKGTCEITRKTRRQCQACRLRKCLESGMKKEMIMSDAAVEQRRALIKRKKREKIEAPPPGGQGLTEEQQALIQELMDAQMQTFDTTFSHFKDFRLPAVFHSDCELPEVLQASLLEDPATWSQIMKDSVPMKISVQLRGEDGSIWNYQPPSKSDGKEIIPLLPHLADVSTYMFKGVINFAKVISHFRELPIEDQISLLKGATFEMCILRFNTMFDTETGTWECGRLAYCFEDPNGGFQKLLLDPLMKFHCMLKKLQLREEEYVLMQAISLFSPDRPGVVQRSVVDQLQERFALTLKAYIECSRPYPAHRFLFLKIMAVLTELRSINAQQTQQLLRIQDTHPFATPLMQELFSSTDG
Express it in %; write the number only.

What value of max response has been recorded for this entry: CCOP(=S)(Oc1cnc(C(C)(C)C)nc1)OC(C)C (configuration not stated)
6.76

State the recorded max response for this entry: CCOP(=O)(NC(C)C)Oc1ccc(S(C)(=O)=O)c(C)c1 (configuration not stated)
4.77

# query: max response of entry O=C1C=CC(=O)c2ccccc21
2.78

Entry CNC(=O)Oc1cc(C)cc(C(C)C)c1 : reported max response = ?
-3.71

What does the record list as max response for CCOP(=O)(OCC)Oc1cc(C)nc(C(C)C)n1 ?
-12.9

Which value of max response has been reported for CC(C)COP(=O)(OCC(C)C)OCC(C)C in the records?
-5.22

Query: max response; subject: COc1cc(OC)nc(NC(=O)NS(=O)(=O)c2ncccc2C(F)(F)F)n1
0.924

Field request: max response | item: COc1cc(OC)nc(NC(=O)NS(=O)(=O)c2ncccc2OCC(F)(F)F)n1
-1.56

// lookup max response for CCC[CH2][Sn]1([CH2]CCC)[O]C(=O)C=CC(=O)[O]1
-13

Which max response value belongs to C=CC(=O)OCCCCCC(C)C ?
0.944

Form field: reported max response of O=C(NC(=O)c1c(F)cccc1F)Nc1ccc(OC(F)(F)C(F)OC(F)(F)F)c(Cl)c1 (configuration not stated)
1.96

Sample CC(C)C(=O)OCC(C)(C)C(OC(=O)C(C)C)C(C)C (configuration not stated) — what was its max response?
2.02

* * *

experiment: Cell Viability - LYMP2-009 (AID 968); conditions: LYMP2-009 lymphoblastoid cell viability; series mostly up to 92.2 µM;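 further: cells exposed to compound for 24 h at 37 °C; nearly all actives have a fitted effect of over 55% in size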; further: potency means the concentration at half of the fitted maximal effect
Inconclusive results are not listed. Calls of active or inactive are those of the source. The call rests on the fitted dose curve; in most records, active means well fitted cell-killing curve with a large enough effect; inconclusive means small, poorly fitted or top-dose-only effect; inactive means flat fitted curve, though single readings scatter.
VALUE TYPE: Potency

Consider the worked cases shown below.
| COMPOUND | Potency |
| --- | --- |
| N#CC(Cl)Cl | 15.8 µM (active) |
| C#CCO | inactive |
| O=C(O)C1C(C(=O)O)C2(Cl)C(Cl)=C(Cl)C1(Cl)C2(Cl)Cl (centres undefined) | inactive |
| CCCCCCCCn1sccc1=O | 5.01 µM (active) |
| c1cc(OCC2CO2)cc(OCC2CO2)c1 (centres undefined) | 39.8 µM (active) |

Returns the measured Potency for the input compound. Input: OC(c1ccc(Cl)cc1)(c1ccc(Cl)cc1)C(Cl)(Cl)Cl
inactive

For the compound shown here, COP(=O)(OC)O/C(=C\Cl)c1cc(Cl)c(Cl)cc1Cl , give the reported Potency.
inactive

Suppose we examine the compound C[C@@H]1CC[C@@]2(OC1)O[C@H]1[C@@H](O)[C@H]3[C@@H]4CC[C@H]5C[C@@H](O[C@@H]6O[C@H](CO)[C@H](O[C@@H]7O[C@H](CO)[C@@H](O)[C@H](O[C@@H]8OC[C@@H](O)[C@H](O)[C@H]8O)[C@H]7O[C@@H]7O[C@H](CO)[C@@H](O)[C@H](O[C@@H]8O[C@H](CO)[C@@H](O)[C@H](O)[C@H]8O)[C@H]7O)[C@H](O)[C@H]6O)[C@H](O)C[C@]5(C)[C@H]4CC[C@]3(C)[C@H]1[C@@H]2C ; what Potency value has been reported?
12.6 µM (active)

# lookup: Potency of ClC1=C(Cl)C(Cl)(Cl)C(Cl)=C1Cl
7.94 µM (active)

Fill in: Potency of ClC1=C(Cl)C2(Cl)C3C(Cl)C(Cl)CC3C1(Cl)C2(Cl)Cl (centres undefined) is ___
inactive

* * *

Kindly supply the reported Potency values for the records listed here.
target: Glucocorticoid receptor (Homo sapiens) (UniProt P04150); assay: GR-GFP Redistribution (AID 450); conditions: U2OS GR-GFP nuclear translocation, laser cytometry, 2 h; further: potency means the concentration at half of the fitted maximal effect
Sequence (P04150 whole entry, looked up): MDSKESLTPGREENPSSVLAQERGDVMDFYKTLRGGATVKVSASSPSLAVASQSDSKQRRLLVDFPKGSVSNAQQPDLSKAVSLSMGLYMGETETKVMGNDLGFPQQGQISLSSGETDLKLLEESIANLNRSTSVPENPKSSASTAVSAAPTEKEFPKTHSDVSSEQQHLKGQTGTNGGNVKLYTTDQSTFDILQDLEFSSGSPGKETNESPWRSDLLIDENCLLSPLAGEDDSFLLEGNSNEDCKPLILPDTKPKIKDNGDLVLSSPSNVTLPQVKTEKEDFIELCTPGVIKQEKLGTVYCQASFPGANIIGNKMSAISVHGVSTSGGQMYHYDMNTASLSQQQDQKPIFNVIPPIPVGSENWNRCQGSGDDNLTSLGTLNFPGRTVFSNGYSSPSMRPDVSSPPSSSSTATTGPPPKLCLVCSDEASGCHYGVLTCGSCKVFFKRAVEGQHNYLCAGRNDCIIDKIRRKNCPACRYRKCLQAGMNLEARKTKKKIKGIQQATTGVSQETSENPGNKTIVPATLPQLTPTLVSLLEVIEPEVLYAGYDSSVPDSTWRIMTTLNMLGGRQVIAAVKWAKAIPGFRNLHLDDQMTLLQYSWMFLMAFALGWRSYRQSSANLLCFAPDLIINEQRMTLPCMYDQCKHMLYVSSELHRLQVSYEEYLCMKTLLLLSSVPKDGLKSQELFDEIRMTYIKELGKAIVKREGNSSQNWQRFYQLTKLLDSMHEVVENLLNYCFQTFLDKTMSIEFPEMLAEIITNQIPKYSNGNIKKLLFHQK
Activity calls are given as the source filed them.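 The calls were made as follows: active = compounds whose dose series gives a full or clear partial fitted curve of increased nuclear translocation; inconclusive = weak partial curve or effect only at the top dose; inactive = no dose-dependent translocation response.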

What value of Potency has been reported for the following molecule? CC(C)(C)c1ccc(O)c(C[N+](C)(C)C)c1
> 46 µM (inactive)

Quick one: Potency for CN[C@@H](C)[C@@H](O)c1ccccc1 ?
> 46 µM (inactive)

Could you tell me which Potency is on file for CC1CN=C(Nc2ccc(N(C)C)cc2)S1 (stereo not drawn) ?
> 20.6 µM (inactive)

Query: Potency; subject: COc1cccc(-n2c(O)c(C=NCCN3CCOCC3)c(=O)[nH]c2=O)c1
> 20.6 µM (inactive)

Quick one: Potency for CCCc1nc2ccccc2c(=O)n1-c1ccccc1OC ?
> 20.6 µM (inactive)

Item under review: CC(=O)N1C[C@@H]2C[C@H](C1)c1cccc(=O)n1C2 . Reported Potency?
> 46 µM (inactive)

Record request: Potency value, item O=P(c1ccccc1)(c1ccccc1)N1CCCCC1
> 20.6 µM (inactive)

Query: Potency; subject: C[C@H]1CC[C@@H]2[C@@H](C)C(=O)O[C@H]3O[C@@]4(C)CC[C@@H]1[C@]32OO4
> 46 µM (inactive)

* * *

experiment: Confirmation and Secondary Assay for Modulators of Hemoglobin Beta Chain Splicing at IVS2 654 locus (AID 910); conditions: HeLa EGFP-654 splicing reporter, GFP fluorescence, 48 h; series mostly up to 46.1 µM;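 further: HeLa cells stably carrying EGFP split by mutant beta-globin IVS2-654 intron; per-well total GFP intensity by laser scanning cytometry after 2-day treatment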
The source made the active and inactive calls. The call rests on the fitted dose curve; in most records, active means well fitted activation curve with a large enough effect; inconclusive means small, poorly fitted or top-dose-only effect; inactive means flat fitted curve, though single readings scatter.
Allowed answers: class 1 = active, class 0 = inactive

Would you mind telling me which call this test gave CCC1C2CC3C4N(C)c5ccccc5[C@]45CC(C2C5O)N3C1O (some centres undefined) ?
class 0

What did the test return for CC(=O)OC1C2CCC3C1(CC(O)[C@@]1(O)[C@@H](CC(O)C1(C)C)[C@]3(C)O)C[C@@]2(C)O (some centres undefined) ?
class 0

I would be grateful if you could indicate the recorded call for CCCCCCCCCCCCCC(=O)OC1C(C)[C@@]2(O)C(C=C(CO)C[C@]3(O)C(=O)C(C)=C[C@H]23)[C@@H]2C(C)(C)[C@]12OC(C)=O (some centres undefined) .
class 0

Status in this test for COc1cc2ccc(=O)oc2c2ccoc12 ?
class 0

Call for entry N#Cc1c(Cl)c(Cl)c(Cl)c(C#N)c1Cl :
class 0

Given COc1ccc(C2Oc3c(I)c(OC)cc(OC)c3CC2O)cc1OC (centres undefined) , state the outcome it received in this test.
class 0

How did this test come out for COc1c2c(c(CC=C(C)C)c3oc(=O)c(-c4ccc(O)cc4)c(O)c13)OC(C)(C)C=C2 ?
class 0

Hello, I am checking results. What call was entered for CNNC ?
class 0

Test call, this compound: COc1cc2c(cc1OC)[C@@H]1C(=O)c3ccc4c(c3OC1CO2)CC(C(C)C)O4 (some centres undefined)
class 0

Could you kindly confirm the outcome this assay logged for CC1=C(O)C(=O)C=C2C1=CC=C1[C@]2(C)CC[C@@]2(C)C3C[C@](C)(C(=O)O)CC[C@@]3(C)CC[C@@]12C (some centres undefined) ?
class 0

Answer briefly: the call reported for NCC(N)C(=O)c1ccccc1 (centres undefined) in this assay.
class 0

I would be grateful if you could indicate the recorded call for CC1CC(Cl)CCC1C(=O)OC(C)(C)C (centres undefined) .
class 0

Tell me the recorded outcome of this test for CC1CC(C)C(=O)[C@H](C(O)CC2CC(=O)NC(=O)C2)C1 (some centres undefined) .
class 0

Outcome? CC[C@]1(O)CC(O[C@@H]2CC(N(C)C)C(O)C(C)O2)c2c(cc3c(c2O)C(=O)c2c(O)cccc2C3=O)C1C(=O)OC (some centres undefined)
class 1

Call for entry COc1ccc2c(c1O)-c1c(OC)c(OC)cc3c1[C@@H](C2)N(C)CC3 :
class 0

For this compound, state the assay outcome: CC1(C)C(=O)[C@@H]2OC2[C@@]2(C)C1CC(O)[C@]1(C)C2CC[C@@]2(C)C(c3ccoc3)OC(=O)C3OC312 (some centres undefined)
class 0

What did this assay record as the result for CCOP(=S)(OCC)SCn1c(=O)oc2cc(Cl)ccc21 ?
class 0

// param item: CC(=O)Oc1c2c(c(CC=C(C)C)c3c1C(=O)C1=CC4CC5C(C)(C)OC(C/C=C(\C)C(=O)O)(C4=O)[C@]15O3)OC(C)(CCC=C(C)C)C=C2 (some centres undefined) ; yields the recorded call
class 0

What was the test verdict on CN(C)C1C(=O)C(C(N)=O)=C(O)[C@@]2(O)C(=O)C3=C(O)c4c(O)cccc4[C@](C)(O)C3C(O)C12 (some centres undefined) ?
class 0

* * *

tested on: HB3; test: qHTS profiling for inhibitors of Plasmodium falciparum proliferation (AID 504749); further: nearly all actives have a fitted effect of over 60% in size; conditions: P. falciparum in erythrocytes, SYBR Green DNA, 72 h; series mostly up to 28.7 µM
Inconclusive results are not listed. Active and inactive are the calls of the source. Calls follow the shape of the dose curve; as a rule, active = well fitted inhibition curve with a large enough effect; inconclusive = small, poorly fitted or top-dose-only effect; inactive = flat fitted curve, though single readings scatter.
# valid calls are t for active, f for inactive; nothing else

Dear all, I need the recorded test outcome for CC1(C)[C@@H](C=C(Cl)Cl)[C@@H]1C(=O)OCc1c(F)c(F)cc(F)c1F , thank you.
f

For C[C@@H]1CC[C@H]2[C@@H](C)C(=O)O[C@@H]3OC4(C)CC[C@@H]1C32OO4 (some centres not stated) , what call appears in the results of this test?
t

What outcome does the record of this test show for COC(=O)C1C(OC(=O)c2ccccc2)CC2CCC1N2C (configuration not stated) ?
f

What did the test return for C#C[C@]1(O)CC[C@H]2[C@@H]3CCC4=CC(=O)CCC4(C)[C@H]3CCC21C (some centres not stated) ?
f

// outcome(item) with item = CCCCCC(O)C1C(=O)OC(C)C(O)\C=C/C=C\C=C/C=C\C=C(\C)C(O)C(O)C(O)CC(O)CC(O)CC(O)CC(O)CC1O (configuration not stated)
f

Any idea what this test logged for CCC/C=C/C=C/C(=O)OC1/C(=C/C(=O)OC)CC2CC(C(C)O)OC(=O)CC(O)CC3CC(OC(C)=O)C(C)(C)C(O)(CC4C/C(=C/C(=O)OC)CC(/C=C\C(C)(C)C1(O)O2)O4)O3 (configuration not stated) ?
t

How did this test come out for CC(=O)[C@H]1CC[C@H]2C3CC[C@H]4C[C@H](O)CC[C@]4(C)C3CC[C@]12C (some centres not stated) ?
f

Name the outcome recorded for C[C@]12CC[C@H]3[C@@H](CC[C@@]45O[C@@H]4C(=O)C(C#N)C[C@]35C)[C@@H]1CC[C@@H]2O (some centres not stated) in the assay.
f

I'd appreciate the recorded outcome for CCC(=O)OC1(c2ccccc2)CCN(C)CC1C (configuration not stated) from this test.
f

State the result this test recorded for CN1C2CCC1C(C(=O)O)C(OC(=O)c1ccccc1)C2 (configuration not stated) .
f

What classification did Cc1cc(C)cc(C(=O)OC2CC3CCC(C2)N3C)c1 (configuration not stated) end up with in this test?
f

Tell me the assay call for C[C@H](N)Cc1ccccc1 please.
f

Which outcome was assigned to [S]=[Sb][S][Sb]=[S] in this test?
f

# lookup: test call for C#CCN1CC(=O)N(COC(=O)[C@@H]2[C@@H](C=C(C)C)C2(C)C)C1=O
f

How was CC1OC(O[C@H]2C[C@@H](O)[C@]3(CO)[C@@H]4C(CC[C@]3(O)C2)[C@@]2(O)CC[C@H](C3=CC(=O)OC3)[C@@]2(C)C[C@H]4O)C(O)C(O)C1O (some centres not stated) classified in this test?
f

In this assay, the call recorded for COc1ccc2c3c1O[C@H]1[C@@H](O)C=C[C@H]4C(C2)NCCC341 (some centres not stated) was what?
f

Fill in: this test's call for CC(CO)NC(=O)C1C=C2c3cccc4[nH]cc(c34)CC2N(C)C1 (configuration not stated) is ___
f
